tested on: SF-295; test: NCI tumour cell line growth inhibition, 48 h
Active and inactive are the calls of the source. Rule as the data show it: active = GI50 up to about 1.1 µM and inactive = higher.
Outcome field: choose from active, inactive

[ask] Hi team, can someone confirm the assay call for CCCCCC(O)C1C(=O)OC(C)C(O)/C=C/C=C/C=C/C=C\C=C(\C)C(O)CC(O)CC(O)CC(O)CC(O)CC(O)CC1O (centres undefined) ?
[reply] inactive

[ask] So what was the verdict on COC(=O)C(=O)C(C(=O)C(=O)Nc1cc(C)ccc1C)c1nc2ccccc2nc1O (centres undefined) in this test?
[reply] inactive

[ask] What call does the record list for O=P(Nc1ccccc1)(Oc1ccccc1)N(CCCl)CCCl (centres undefined) ?
[reply] inactive

[ask] Look up the recorded call for COc1ccc(-c2oc3ccc(C)cc3c(=O)c2O)cc1 in this test.
[reply] inactive

[ask] Hi, sorry to bother you, what did the test record for O=C(O)c1cccc(S(=O)(=O)NN2C(=O)CSC2c2c(O)ccc3ccccc23)c1 (centres undefined) ?
[reply] inactive

[ask] Could you check what this test reported for CCOC(=O)c1nc2cc(C(F)(F)F)ccc2nc1Oc1ccc(OC)cc1 ?
[reply] inactive

[ask] Please let me know the test result on file for NC1=Nc2cc(Cl)ccc2Sc2nc3ccccc3n21 .
[reply] inactive

[ask] Tell me the recorded outcome of this test for COC(=O)C1=C(O)c2cc(OC)c(OC)c(OC)c2[C@H](c2cc(OC)c(OC)c(OC)c2)C1C(=O)OC (some centres undefined) .
[reply] inactive

***
[ask] Field: outcome | Entry: CC1(C)C2CCC13CS(=O)(=O)N1O[C@]13C(=O)O2 (some centres undefined)
[reply] inactive

[ask] Could you kindly confirm the outcome this assay logged for COC1C(OC(=O)c2ccc(C)[nH]2)C(O)C(Oc2ccc3c(O)c(NC(=O)c4ccc(O)c(CC=C(C)C)c4)c(=O)oc3c2Cl)OC1(C)C (centres undefined) ?
[reply] inactive

[ask] Test call, this compound: COC(=O)c1cc(C)ccc1/C=C1\Cc2cc(C)c(C)cc2C1=O
[reply] inactive

[ask] # outcome recorded in this test, key = Cc1cc2c(cc1Cl)S(=O)(=O)OC(c1ccc([N+](=O)[O-])cc1)=N2
[reply] inactive

[ask] Look up the recorded call for CN(C)/C=N/c1ccc2nonc2c1 in this test.
[reply] inactive

[ask] Entry COc1ccccc1-c1c(C#N)c(N)[nH]c(=S)c1C#N : call = ?
[reply] inactive

[ask] Which outcome was assigned to O=C(O)[C@@H]1CCCN1 in this test?
[reply] inactive

[ask] Just curious, what result did CCC(C(=O)C(=O)C(CC)P1(=O)OC(C)(C)CN1C(C)(C)C)P1(=O)OC(C)(C)CN1C(C)(C)C (centres undefined) get here?
[reply] inactive

[ask] What did this assay record as the result for O=C1Nc2ccccc2C1Cc1ccc([N+](=O)[O-])cc1 (centres undefined) ?
[reply] inactive
